test system: KIT-autoinhibited; settings: concentration: 1 μM,replicates: in singlicate; n = 1;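 also: KINOMEscan kinase panel screen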
quantity.kind: %Inh (%)
Lab book: enter the figure in %, no units written.

The compound identified as Cn1ccc2ncnc(Oc3ccc(NC(=O)Nc4cccc(C(F)(F)F)c4)c(F)c3)c21 registered its %Inh at 75

The compound identified as CS(=O)c1ccc(-c2coc3ccc(-c4n[nH]c(=O)o4)cc23)cc1 (stereo not drawn) registered its %Inh at 0

The compound identified as Cn1ccc2ncnc(Oc3ccc(NC(=O)Nc4ccnc(C(F)(F)F)c4)c(Cl)c3)c21 registered its %Inh at 22

The compound identified as C[C@@H]1CCN(C(=O)N2CCCC2)C[C@@H]1N(C)c1ncnc2[nH]ccc12 registered its %Inh at 23

The compound identified as CN(c1ccc2c(c1)nc(NCc1ccc(F)cc1)n2C)c1ccnc(Nc2ccc(CS(C)(=O)=O)cc2)n1.Cl registered its %Inh at 69

The compound identified as C[C@@H]1CNc2c(sc3ccc4nc(-c5ccc(O)cc5)ccc4c23)C(=O)N1 registered its %Inh at 0

The compound identified as O=c1[nH]cc(-c2ccc(O)cc2)c2sc(-c3ccncc3)cc12 registered its %Inh at 0

The compound identified as O=C1NCCc2[nH]c(-c3ccncc3)cc21 registered its %Inh at 0

The compound identified as Cc1nnc(-c2ccc3occ(-c4ccc(S(C)=O)cc4)c3n2)o1 (stereo not drawn) registered its %Inh at 0
